Values compiled from PubChem BioAssay (NCI).

Please respond with reported growth for every item in the list.
# Test system: OVCAR-5 ovarian
# test.summary: NCI-60 one-dose screen, 48 h (100 = growth as untreated, 0 = no growth, -100 = all killed)
# run.parameters: 10 µM unless noted
About 83,000 compounds went through this panel and 20% of them were active in at least one assay; those are over-represented in the sample as a whole. Active and inactive are the calls of the source. Rule for the calls: active = growth percent below 10; inactive = the rest.

I would be grateful if you could share the reported growth for COc1cccc(CNc2ccc3ncnc(Nc4ccc(F)c(Cl)c4)c3c2)c1 . 72.2% (inactive)

Try this compound too: CC(O)(c1ccccc1)C(c1ccccc1)C1CCCCN1 (stereo not drawn) 113% (inactive)

Try this compound too: CCCNC(=O)Nc1ccc2cc3ccc(NC(=O)NCCC)cc3nc2c1 90.1% (inactive)
